Where these numbers come from: PubChem BioAssay (NCI)

experiment: NCI Yeast Anticancer Drug Screen. Data for the mlh1 rad18 strain (AID 175); conditions: S. cerevisiae mlh1 rad18 strain growth inhibition; at 50.0 µM (retest, dose inferred, filed as 5.0); stronger effect = higher value
About 79,000 compounds went through this panel and 15% of them were active in at least one assay; those are over-represented in the sample as a whole.
Would you kindly list growth inhibition for each of these molecules?
Give bare numbers, in %.

Past entries and their recorded results:
>  <molecule>
O=C(N=Nc1cccc(Cl)c1)NNc1cccc(Cl)c1

>  <growth inhibition, %>
98

$$$$
>  <molecule>
CC1=NN(c2nc(N)nc(NS(=O)(=O)c3cc(C)c(Cl)cc3S)n2)C(C)(C)C1

>  <growth inhibition, %>
4

$$$$
>  <molecule>
N/N=C(/N)SCCCCCCCCCCS/C(N)=N/N

>  <growth inhibition, %>
39

$$$$
>  <molecule>
CC(=O)OC1=C(CC(C)C)C(=O)c2ccccc2C1=O

>  <growth inhibition, %>
85

$$$$
>  <molecule>
CCN(CC)CCN(C)c1ccc(CO)c2c1C(=O)c1ccccc1S2=O (configuration not stated)

>  <growth inhibition, %>
73

$$$$
>  <molecule>
C/C(=C/C(=O)N1c2ccccc2CC1c1c[nH]c2ccccc12)C(=O)O (configuration not stated)

>  <growth inhibition, %>
15

$$$$
>  <molecule>
CCCCCCCOC(=O)c1cc2cc(C(CC)C(CC)c3ccc(O)cc3)ccc2oc1=O (configuration not stated)

>  <growth inhibition, %>
57

$$$$
>  <molecule>
S=C(Nc1ccc(Br)c(Cl)c1)SCc1ccc2c(c1)OCO2

>  <growth inhibition, %>
97

$$$$
>  <molecule>
CSc1ccc(NC(=S)SC(C)C)cc1Cl

>  <growth inhibition, %>
99

$$$$
>  <molecule>
CCOSc1ccccc1

>  <growth inhibition, %>
93

$$$$

Kindly give each listed record's growth inhibition.
1. Nc1cc(Br)cc2c1[nH]c1ccc(Br)cc12
2. OCC(O)C(O)C(/C=N/Nc1ccccc1)=N/Nc1ccccc1 (configuration not stated)

### Response
98
61

====

assay: NCI Yeast Anticancer Drug Screen. Data for the cln2 rad14 strain (AID 165);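 also: 0% = growth equal to vehicle treated cultures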; conditions: S. cerevisiae cln2 rad14 strain, at 50.0 µM
Compounds without any hit were thinned out: in the full panel of roughly 79,000, 15% have a hit. The source made the active and inactive calls. Rule as the data show it: active = growth inhibition above about 70%; inactive = the rest.
Allowed answers: yes = active, no = inactive

// known answers, use as guide
>  <molecule>
COc1ccc(-c2c3ccccc3[n+](-c3ccccc3)c3ccccc23)cc1

>  <class_assignment>
yes

$$$$
>  <molecule>
Cc1cc(N=NC(N)=S)c2ccccc2c1O

>  <class_assignment>
no

$$$$
>  <molecule>
CN(C)C1CCC2C3CC=C4CC(OC=O)CCC4(C)C3CCC21C (stereo unspecified)

>  <class_assignment>
yes

$$$$
>  <molecule>
CC1=NC(C)C(C)S1 (stereo unspecified)

>  <class_assignment>
no

$$$$
>  <molecule>
O=CC(O)CN1CCCC1 (stereo unspecified)

>  <class_assignment>
yes

$$$$
>  <molecule>
COc1ccc(N=C2C(=S)N(c3ccc(OC)cc3)/C(=N/S(=O)(=O)c3ccccc3)N2c2ccccc2)cc1

>  <class_assignment>
no

$$$$

### Prompt # fetch the recorded call for `O=S(=O)(NC(=S)Nc1ccccc1)c1ccc(Br)cc1` here
### Response yes

### Prompt Record lookup: outcome of this test for `CN1C(=O)c2ccccc2C1(c1ccccc1)c1ccccc1` ?
### Response no

### Prompt Give the logged outcome of this assay for the following molecule: CCN(CC)CCCC(C)Nc1cc(O)c2c(c1O)C(=O)c1ccccc1C2=O (stereo unspecified)
### Response yes

### Prompt Identify the outcome logged in this assay for the molecule shown: O=[N+]([O-])c1ccccc1C1CN=NN1c1ccccc1 (stereo unspecified)
### Response no

### Prompt How did this test come out for `Cc1ccc2nn(-c3ccc(O)cc3)nc2c1` ?
### Response no

### Prompt Can you look up the reported call for `O=C1C(Cl)=CC(=NCl)C=C1Cl` for me?
### Response yes

====

assay: NCI Yeast Anticancer Drug Screen. Data for the cln2 rad14 strain (AID 165);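 also: 0% = growth equal to vehicle treated cultures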; settings: S. cerevisiae cln2 rad14 strain, at 5.0 µM (retest, dose inferred, filed as 0.5), stronger effect = higher value
About 79,000 compounds went through this panel and 15% of them were active in at least one assay; those are over-represented in the sample as a whole.
Give growth inhibition for every item shown.
One number for each entry, in %.

Example entries and their recorded answers appear below.
>  <compound>
Cc1ccc(S(=O)(=O)CC(=O)CC(=O)C(=O)Nc2cc(C)ccc2C)cc1

>  <growth inhibition, %>
-3

$$$$
>  <compound>
CC(C)C(Sc1nc(-c2ccccc2)c(-c2ccccc2)[nH]1)C(=O)NN (stereo unspecified)

>  <growth inhibition, %>
17

$$$$
>  <compound>
COC1=CC(=O)c2ncc(Cl)cc2C1=O

>  <growth inhibition, %>
-10

$$$$
>  <compound>
O=C(c1ccccc1)c1ccc(O)cc1O

>  <growth inhibition, %>
-4

$$$$
>  <compound>
CC(CN(C)C)C(/C=C/c1ccccc1)=N\NC(=O)c1ccccc1 (stereo unspecified)

>  <growth inhibition, %>
-11

$$$$
>  <compound>
Cc1ccc(S(=O)(=O)N/N=C2/CCC3(O)CC2(C)CCC2[C@H]3CC2(C)C)cc1 (stereo partly specified)

>  <growth inhibition, %>
13

$$$$
>  <compound>
O=C1SC(c2ccccc2)=S=C1c1ccccc1

>  <growth inhibition, %>
13

$$$$
>  <compound>
OC1c2ccccc2C2(O)C1C(c1ccccc1)C(c1ccccc1)C2(O)c1ccccc1 (stereo unspecified)

>  <growth inhibition, %>
-4

$$$$
>  <compound>
O=[N+]([O-])/C(C(Cl)=C(Cl)Cl)=C(/Sc1ccccc1)N1CCCCC1

>  <growth inhibition, %>
-7

$$$$
>  <compound>
CCCCCCCCCc1cc(O)c(O)cc1CCCCCCCCC

>  <growth inhibition, %>
-23

$$$$

### Prompt Output growth inhibition of CCCCCCCCCCCCNC(=O)OCC(C)O (stereo unspecified) (tested in a mixture with another compound)
### Response 81

====

Record form. Attribute: growth inhibition. Fill in for each entry.
Experiment: NCI Yeast Anticancer Drug Screen. Data for the mlh1 rad18 strain (AID 175)
Conditions: S. cerevisiae mlh1 rad18 strain growth inhibition; at 50.0 µM; stronger effect = higher value
Experimental: Growth inhibition of yeast strains with defined genetic alterations is measured as a screen for potential anti-cancer activity. Selected strains with alterations in DNA damage repair or cell cycle control were exposed to compounds and growth inhibition was measured relative to vehicle treated controls. The strain used in this assay is mlh1 rad18
The panel holds about 79,000 compounds, 15% with a hit somewhere; the sample as a whole holds those more often.
One number for each entry, in %.

Here are 3 molecules together with their reported answers.
>  <molecule>
O=C(O)CSc1nnc2c3ccccc3c3ccccc3c2n1

>  <growth inhibition, %>
47.1

$$$$
>  <molecule>
Nc1nc(-c2ccc(Cl)cc2)cs1

>  <growth inhibition, %>
97.7

$$$$
>  <molecule>
O=CC(O)CN1CCCC1 (configuration not stated)

>  <growth inhibition, %>
92.9

$$$$

For each of the molecules below, state growth inhibition.
1. N#CCc1nc(Cl)cc(Cl)n1
2. CCn1c2ccccc2n2c(=O)cc(-c3ccccc3)c(C#N)c12
3. Nc1ccc2c(SCc3ccc([N+](=O)[O-])cc3)c3ccccc3nc2c1
4. COc1ccc(C(C)c2cc3c(cc2O)OCO3)cc1 (configuration not stated)
5. CC(C)C(O)C(C)C
6. Oc1ccc(C2SC(c3ccc(O)cc3)SC(c3ccc(O)cc3)S2)cc1 (configuration not stated)
7. CCc1c(C)[nH]c2c([N+](=O)[O-])cccc12
8. NNc1ccccc1F

### Response
1. 15.9
2. 24.4
3. 83.9
4. 98
5. 49.5
6. 98.8
7. 94.8
8. 98.9

### Prompt Give recorded growth inhibition. `O=C(O)c1cc(C(=O)O)c(C(=O)O)cc1C(=O)O.[NH-]C1CCCC1.[NH-]C1CCCC1.[NH-]C1CCCC1.[NH-]C1CCCC1.[Pt+2].[Pt+2]`
### Response 99

====

assay: NCI Yeast Anticancer Drug Screen. Data for the sgs1 mgt1 strain (AID 161);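 also: 0% = growth of cultures given vehicle only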; settings: S. cerevisiae sgs1 mgt1 strain, at 50.0 µM (retest, dose inferred, filed as 5.0), stronger effect = higher value
About 79,000 compounds went through this panel and 15% of them were active in at least one assay; those are over-represented in the sample as a whole.
recorded_metric: growth inhibition (%)
One number for each entry, in %.

Example cases with answers are listed next.
>  <molecule>
Oc1[nH]c2ccccc2c1N=NC(=S)N1CCCC1

>  <growth inhibition, %>
42

$$$$
>  <molecule>
OCC(O)C(O)C(/C=N/Nc1ccccc1)=N/Nc1ccccc1 (configuration not stated)

>  <growth inhibition, %>
57

$$$$
>  <molecule>
COc1cc(C2=NCCO2)cc(OC)c1OC

>  <growth inhibition, %>
-60

$$$$
>  <molecule>
CC([NH-])C(=O)O.[Cu+2].[NH-]C(Cc1cnc[nH]1)C(=O)O (configuration not stated)

>  <growth inhibition, %>
1

$$$$

# map each molecule to its growth inhibition
1. O=C(O)COc1ccccc1C(=O)O
2. O=c1oc2c/c(=C\c3ccccc3)c(=O)c3cccc1c3-2
3. COc1ccc(C)cc1NC(=O)ON=C1CCCCC1
4. O=C(Nc1ccc(Cl)cc1)Nc1cc(Cl)ccc1O
5. C1=CN2C(c3ccccc3)=NN(c3ccccc3)[C@@H]2c2ccccc21

### Response
1: 0; 2: 97; 3: 92; 4: 28; 5: 50

For each of the molecules below, state growth inhibition.
1. O=c1c2cnccc2cc2c3ccccc3ccn12
2. O=NNc1nc(-c2ccccn2)nc2ccccc12
3. CC(C)(Br)C(=O)c1ccc([N+](=O)[O-])o1

### Response
1. 64
2. 97
3. 100
